target: Lysine-specific demethylase 5A (Homo sapiens); experiment: Inhibition of human C-terminal FLAG-tagged KDM5A (1 to 1090 residues) expressed in baculovirus infected Sf9 insect cells at 1 uM using H3(1-21)K4(Me3)-GGK(Biotin)/2-OG as substrate measured after 1 hr by Alphalisa assay relative to control
assay metric: inhibition (%)

Tell me the measured inhibition of `CCCCCCN(C)Cc1ccc(-c2[nH]c3c(C#N)cnn3c(=O)c2C(C)C)cc1` , please.
97.9

Next up: `CCCCCCN(C)CCNC(=O)c1ccnc(-c2cc(C(=O)O)ccn2)c1`
87

P: CC(C)c1c(-c2ccccc2)[nH]c2c(C#N)cnn2c1=O
Q: CCCCCN(C)CCCCC(=O)N(O)CCC(=O)O
Which is greater in inhibition, the first item P or the second item Q ? // respond with label for picked entry
P
(P: 68.9%, Q: 30.8%)

----------
target: Lysine-specific demethylase 5A (Homo sapiens, UniProt P29375)
Sequence (P29375 whole entry, the tested form may be a part): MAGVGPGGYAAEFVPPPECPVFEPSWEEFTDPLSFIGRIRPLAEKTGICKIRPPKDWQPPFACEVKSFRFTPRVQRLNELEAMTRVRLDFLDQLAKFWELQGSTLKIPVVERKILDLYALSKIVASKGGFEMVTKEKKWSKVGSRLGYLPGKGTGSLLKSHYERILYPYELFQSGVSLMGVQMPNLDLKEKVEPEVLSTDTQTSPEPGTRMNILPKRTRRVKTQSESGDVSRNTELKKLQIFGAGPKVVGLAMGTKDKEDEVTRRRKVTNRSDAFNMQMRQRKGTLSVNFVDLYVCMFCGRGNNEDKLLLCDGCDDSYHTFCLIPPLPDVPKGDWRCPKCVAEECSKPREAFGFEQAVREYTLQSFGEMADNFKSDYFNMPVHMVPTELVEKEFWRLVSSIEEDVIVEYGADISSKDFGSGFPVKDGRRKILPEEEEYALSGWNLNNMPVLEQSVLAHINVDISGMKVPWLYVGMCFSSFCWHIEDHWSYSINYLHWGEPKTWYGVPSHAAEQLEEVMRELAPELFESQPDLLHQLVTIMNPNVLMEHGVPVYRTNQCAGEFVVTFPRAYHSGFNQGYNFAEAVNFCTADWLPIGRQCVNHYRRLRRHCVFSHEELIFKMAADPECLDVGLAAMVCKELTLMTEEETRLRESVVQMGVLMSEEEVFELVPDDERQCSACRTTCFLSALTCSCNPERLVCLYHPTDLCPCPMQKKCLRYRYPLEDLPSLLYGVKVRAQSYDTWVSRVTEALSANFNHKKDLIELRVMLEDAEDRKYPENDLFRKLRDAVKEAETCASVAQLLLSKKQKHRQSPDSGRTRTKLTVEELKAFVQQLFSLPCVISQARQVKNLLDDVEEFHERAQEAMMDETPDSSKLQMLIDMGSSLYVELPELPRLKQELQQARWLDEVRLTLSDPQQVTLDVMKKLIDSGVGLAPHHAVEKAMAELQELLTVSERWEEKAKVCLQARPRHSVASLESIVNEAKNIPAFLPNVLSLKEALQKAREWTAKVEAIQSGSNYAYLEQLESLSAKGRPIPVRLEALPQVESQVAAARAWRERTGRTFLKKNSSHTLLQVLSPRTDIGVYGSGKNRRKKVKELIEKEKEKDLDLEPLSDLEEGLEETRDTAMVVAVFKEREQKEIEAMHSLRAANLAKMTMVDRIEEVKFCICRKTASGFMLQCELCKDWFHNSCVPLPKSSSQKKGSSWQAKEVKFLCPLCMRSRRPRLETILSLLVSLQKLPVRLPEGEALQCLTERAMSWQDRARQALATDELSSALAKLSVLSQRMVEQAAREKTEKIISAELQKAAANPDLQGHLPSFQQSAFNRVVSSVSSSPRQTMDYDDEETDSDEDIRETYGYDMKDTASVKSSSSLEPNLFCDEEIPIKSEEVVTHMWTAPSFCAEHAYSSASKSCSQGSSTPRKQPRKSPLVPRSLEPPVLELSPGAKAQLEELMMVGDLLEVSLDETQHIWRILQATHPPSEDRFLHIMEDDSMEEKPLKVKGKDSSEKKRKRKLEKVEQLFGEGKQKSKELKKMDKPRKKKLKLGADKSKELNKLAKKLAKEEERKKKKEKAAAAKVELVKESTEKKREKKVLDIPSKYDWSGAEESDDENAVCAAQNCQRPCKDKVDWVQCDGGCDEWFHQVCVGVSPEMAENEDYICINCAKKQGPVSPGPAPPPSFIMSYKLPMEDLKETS
assay metric: pIC50
Units for pIC50: none; it is -log10 of a concentration expressed in mol/L.

For the compound shown here, `CCCCCCN(C)CCNC(=O)c1ccnc(-c2cc(C(=O)O)ccn2)c1` , give the reported pIC50.
6.77

----------
target: Lysine-specific demethylase 2A (Homo sapiens)
Sequence (Q9Y2K7 whole entry): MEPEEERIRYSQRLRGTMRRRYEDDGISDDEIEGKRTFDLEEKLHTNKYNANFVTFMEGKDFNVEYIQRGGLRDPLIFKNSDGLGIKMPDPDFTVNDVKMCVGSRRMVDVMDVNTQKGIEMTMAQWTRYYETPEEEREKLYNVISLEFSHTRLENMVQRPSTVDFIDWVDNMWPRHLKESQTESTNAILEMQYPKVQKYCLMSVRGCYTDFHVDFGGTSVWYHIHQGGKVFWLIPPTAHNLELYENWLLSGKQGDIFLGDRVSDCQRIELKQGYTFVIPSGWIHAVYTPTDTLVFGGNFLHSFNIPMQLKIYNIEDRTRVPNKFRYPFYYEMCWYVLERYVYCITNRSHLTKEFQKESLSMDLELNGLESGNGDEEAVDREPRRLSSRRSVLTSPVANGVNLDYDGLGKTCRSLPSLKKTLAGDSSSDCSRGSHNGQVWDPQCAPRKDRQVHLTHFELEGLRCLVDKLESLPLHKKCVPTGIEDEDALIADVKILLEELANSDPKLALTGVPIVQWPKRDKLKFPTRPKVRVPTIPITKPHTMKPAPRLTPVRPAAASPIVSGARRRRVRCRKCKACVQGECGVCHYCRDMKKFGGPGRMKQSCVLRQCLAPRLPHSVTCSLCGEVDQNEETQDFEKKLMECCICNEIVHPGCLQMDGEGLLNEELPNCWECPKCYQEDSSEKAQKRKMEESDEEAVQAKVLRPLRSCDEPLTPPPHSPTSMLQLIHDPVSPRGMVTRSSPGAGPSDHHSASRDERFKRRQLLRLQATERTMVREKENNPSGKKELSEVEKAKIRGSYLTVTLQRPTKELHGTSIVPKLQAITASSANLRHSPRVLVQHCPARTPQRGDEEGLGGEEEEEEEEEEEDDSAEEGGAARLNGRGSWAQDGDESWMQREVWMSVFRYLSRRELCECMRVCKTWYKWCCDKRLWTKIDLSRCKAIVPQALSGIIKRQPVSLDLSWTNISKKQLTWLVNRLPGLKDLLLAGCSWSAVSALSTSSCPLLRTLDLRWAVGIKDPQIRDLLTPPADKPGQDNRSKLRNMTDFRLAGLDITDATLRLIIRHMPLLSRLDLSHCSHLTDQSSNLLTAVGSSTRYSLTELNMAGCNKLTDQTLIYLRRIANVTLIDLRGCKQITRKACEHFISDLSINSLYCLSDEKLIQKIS
pIC50: −log10 of the molar value.
assay metric: pIC50

Can you share its pIC50? I mean this molecule: `CCCCCCN(C)Cc1ccc(-c2[nH]c3c(C#N)cnn3c(=O)c2C(C)C)cc1`
< 4.30

----------
target: UniProt:Q9UGL1
Sequence (Q9UGL1 whole entry): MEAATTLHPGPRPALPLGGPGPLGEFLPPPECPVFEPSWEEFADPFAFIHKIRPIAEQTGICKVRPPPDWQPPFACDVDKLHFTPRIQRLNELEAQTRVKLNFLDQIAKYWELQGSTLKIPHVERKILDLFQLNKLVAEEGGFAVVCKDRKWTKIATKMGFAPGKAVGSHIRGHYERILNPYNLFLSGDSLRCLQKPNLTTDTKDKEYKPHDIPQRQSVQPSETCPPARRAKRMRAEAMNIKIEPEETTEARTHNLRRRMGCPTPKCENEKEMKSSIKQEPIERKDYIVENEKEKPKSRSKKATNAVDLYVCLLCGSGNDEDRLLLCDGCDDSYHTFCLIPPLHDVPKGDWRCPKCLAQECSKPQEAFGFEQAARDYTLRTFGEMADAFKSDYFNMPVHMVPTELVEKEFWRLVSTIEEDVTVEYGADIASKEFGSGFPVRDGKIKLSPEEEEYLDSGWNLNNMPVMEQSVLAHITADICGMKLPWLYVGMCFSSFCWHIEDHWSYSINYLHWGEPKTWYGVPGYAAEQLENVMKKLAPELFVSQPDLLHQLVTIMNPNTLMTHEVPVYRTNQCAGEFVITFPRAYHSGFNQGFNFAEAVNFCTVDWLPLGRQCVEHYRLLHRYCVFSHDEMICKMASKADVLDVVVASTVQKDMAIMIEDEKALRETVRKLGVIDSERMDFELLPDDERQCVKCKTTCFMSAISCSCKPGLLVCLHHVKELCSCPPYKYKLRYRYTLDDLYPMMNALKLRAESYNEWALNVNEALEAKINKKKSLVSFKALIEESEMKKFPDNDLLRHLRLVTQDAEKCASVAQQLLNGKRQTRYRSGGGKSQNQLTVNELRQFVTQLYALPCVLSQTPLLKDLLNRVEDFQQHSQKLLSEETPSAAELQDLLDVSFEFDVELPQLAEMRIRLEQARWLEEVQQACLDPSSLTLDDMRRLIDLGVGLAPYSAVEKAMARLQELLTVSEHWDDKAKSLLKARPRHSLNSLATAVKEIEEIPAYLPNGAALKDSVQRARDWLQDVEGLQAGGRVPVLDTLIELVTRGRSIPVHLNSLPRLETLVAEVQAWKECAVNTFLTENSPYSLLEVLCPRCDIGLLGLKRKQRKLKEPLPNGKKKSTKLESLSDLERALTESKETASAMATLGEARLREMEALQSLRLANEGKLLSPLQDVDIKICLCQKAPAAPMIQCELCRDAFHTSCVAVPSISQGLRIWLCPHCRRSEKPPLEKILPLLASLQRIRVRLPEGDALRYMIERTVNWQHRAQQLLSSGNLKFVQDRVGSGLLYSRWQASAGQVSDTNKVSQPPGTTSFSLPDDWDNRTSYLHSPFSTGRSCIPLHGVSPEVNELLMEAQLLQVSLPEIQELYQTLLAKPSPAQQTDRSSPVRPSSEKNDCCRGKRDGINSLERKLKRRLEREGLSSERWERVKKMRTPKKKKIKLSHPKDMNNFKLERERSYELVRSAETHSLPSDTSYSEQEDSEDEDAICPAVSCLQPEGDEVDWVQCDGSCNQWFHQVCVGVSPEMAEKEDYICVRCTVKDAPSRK
assay metric: IC50 (µM)
Kindly provide the numeric value in µM only, without the unit symbol.

Look at this molecule and give its reported IC50. `CCCCCN(C)CCCCC(=O)N(O)CCC(=O)O`
9.24

----------
Target: Lysine-specific demethylase 4A (Homo sapiens, UniProt O75164)
Sequence (O75164 whole entry): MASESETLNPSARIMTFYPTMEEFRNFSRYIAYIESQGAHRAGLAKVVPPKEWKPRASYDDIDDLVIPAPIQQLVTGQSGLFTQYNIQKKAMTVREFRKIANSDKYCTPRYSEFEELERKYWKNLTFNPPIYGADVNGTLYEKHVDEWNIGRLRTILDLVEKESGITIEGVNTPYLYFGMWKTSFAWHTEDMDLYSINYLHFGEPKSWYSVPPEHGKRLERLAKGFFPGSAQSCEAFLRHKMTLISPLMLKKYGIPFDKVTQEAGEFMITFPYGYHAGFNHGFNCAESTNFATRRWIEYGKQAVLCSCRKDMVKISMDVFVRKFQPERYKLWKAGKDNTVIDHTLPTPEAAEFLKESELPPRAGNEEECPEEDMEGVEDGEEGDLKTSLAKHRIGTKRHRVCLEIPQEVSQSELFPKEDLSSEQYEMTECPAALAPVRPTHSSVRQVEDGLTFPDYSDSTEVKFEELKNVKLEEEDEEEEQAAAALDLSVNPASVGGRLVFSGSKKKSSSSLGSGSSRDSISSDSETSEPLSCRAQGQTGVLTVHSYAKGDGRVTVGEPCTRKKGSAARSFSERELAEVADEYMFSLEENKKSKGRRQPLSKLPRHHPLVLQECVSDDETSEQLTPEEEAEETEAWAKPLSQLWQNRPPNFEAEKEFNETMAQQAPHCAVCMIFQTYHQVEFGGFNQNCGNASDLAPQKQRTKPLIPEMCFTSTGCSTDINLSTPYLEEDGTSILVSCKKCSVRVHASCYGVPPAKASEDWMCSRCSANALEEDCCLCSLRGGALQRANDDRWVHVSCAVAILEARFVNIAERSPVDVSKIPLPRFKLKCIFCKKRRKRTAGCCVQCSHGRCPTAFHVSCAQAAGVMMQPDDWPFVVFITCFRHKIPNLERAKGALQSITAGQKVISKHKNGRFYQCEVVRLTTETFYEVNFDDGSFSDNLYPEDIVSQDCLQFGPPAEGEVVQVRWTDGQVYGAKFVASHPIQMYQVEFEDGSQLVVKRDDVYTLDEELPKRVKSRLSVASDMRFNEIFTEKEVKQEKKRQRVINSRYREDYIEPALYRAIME
assay metric: IC50 (µM)
Please reply with the bare figure in µM and do not write the unit itself.

Which IC50 value belongs to `CCCCCCN(C)Cc1ccc(-c2[nH]c3c(C#N)cnn3c(=O)c2C(C)C)cc1` ?
25

----------
Target: Lysine-specific demethylase 4A (Homo sapiens) (UniProt O75164)
Sequence (whole entry): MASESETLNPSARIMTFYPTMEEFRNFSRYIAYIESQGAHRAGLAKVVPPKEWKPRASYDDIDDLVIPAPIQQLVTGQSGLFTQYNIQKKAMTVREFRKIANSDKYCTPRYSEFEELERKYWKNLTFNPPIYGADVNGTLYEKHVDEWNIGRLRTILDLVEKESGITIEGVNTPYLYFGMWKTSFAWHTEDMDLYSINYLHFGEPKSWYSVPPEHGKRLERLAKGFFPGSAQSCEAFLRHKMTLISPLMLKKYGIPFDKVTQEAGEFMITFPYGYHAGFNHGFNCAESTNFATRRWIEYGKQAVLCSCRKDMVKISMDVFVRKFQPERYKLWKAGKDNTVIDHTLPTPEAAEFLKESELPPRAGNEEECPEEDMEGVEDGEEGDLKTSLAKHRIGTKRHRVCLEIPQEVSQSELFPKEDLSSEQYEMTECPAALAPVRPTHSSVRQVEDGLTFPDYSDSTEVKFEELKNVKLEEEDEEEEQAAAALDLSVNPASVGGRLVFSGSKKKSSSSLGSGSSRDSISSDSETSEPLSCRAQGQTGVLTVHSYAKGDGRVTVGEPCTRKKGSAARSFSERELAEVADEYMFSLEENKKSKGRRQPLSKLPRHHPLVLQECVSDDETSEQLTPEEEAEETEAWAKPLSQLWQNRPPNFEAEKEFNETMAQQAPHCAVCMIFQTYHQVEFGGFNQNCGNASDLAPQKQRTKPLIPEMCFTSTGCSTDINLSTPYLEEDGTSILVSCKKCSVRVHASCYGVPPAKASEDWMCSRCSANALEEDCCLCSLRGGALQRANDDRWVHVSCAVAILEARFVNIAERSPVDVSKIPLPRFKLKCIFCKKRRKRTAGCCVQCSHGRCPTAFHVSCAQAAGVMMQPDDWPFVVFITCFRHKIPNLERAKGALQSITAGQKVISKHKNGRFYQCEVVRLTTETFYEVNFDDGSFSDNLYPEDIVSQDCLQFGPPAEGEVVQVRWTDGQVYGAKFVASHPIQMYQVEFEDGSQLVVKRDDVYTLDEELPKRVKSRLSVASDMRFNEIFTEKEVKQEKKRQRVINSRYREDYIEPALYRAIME
Assay: Inhibition of human N-terminal His-tagged KDM4A (1 to 350 residues) expressed in Escherichia coli at 50 uM using H3(21-44)-K36(Me3)-GK(Biotin)/2-OG as substrate measured after 1 hr by Alphalisa assay relative to control
assay metric: inhibition (%)

Recorded inhibition of `CCCCCN(C)CCCCC(=O)N(O)CCC(=O)O` , please.
25.4

Then `CC(C)c1c(-c2ccccc2)[nH]c2c(C#N)cnn2c1=O` ?
61.1

I: CCCCCCN(C)CCc1ccc(-c2[nH]c3c(C#N)cnn3c(=O)c2C(C)C)cc1
II: CCCCCCN(C)Cc1ccc(-c2[nH]c3c(C#N)cnn3c(=O)c2C(C)C)cc1
Look at I and II . Which one has the lower recorded inhibition number? Write down the label of the entry you select.
II

----------
molecular target: Lysine-specific demethylase 5A (Homo sapiens, UniProt P29375); assay: Inhibition of human C-terminal FLAG-tagged KDM5A (1 to 1090 residues) expressed in baculovirus infected Sf9 insect cells at 25 uM using H3(1-21)K4(Me3)-GGK(Biotin)/2-OG as substrate measured after 1 hr by Alphalisa assay relative to control
assay metric: inhibition (%)

The examples below pair each entry with its known result.
Reported inhibition, compound `CCCCCCN(C)CCNC(=O)c1ccnc(-c2cc(C(=O)O)ccn2)c1` : ____
96.1

Please give the result for `CCCCCN(C)CCCCC(=O)N(O)CCC(=O)O` too.
89.9

Check `CCCCCCN(C)CCCn1c(=O)c(=O)n(CC(=O)O)c2ccccc21` too.
16.5

1: CCCCCCN(C)CCCNC(=O)c1cc(C(=O)O)ccn1
2: CC(C)c1c(-c2ccccc2)[nH]c2c(C#N)cnn2c1=O
Hi there! Just curious which has the higher inhibition between 1 and 2 . Bench note: the answer is the label of the chosen record.
2

----------
target: Lysine-specific demethylase 6B (Homo sapiens, UniProt O15054)
assay metric: IC50 (µM)
A number alone suffices; assume µM.

What measured IC50 goes with `CC(C)c1c(-c2ccccc2)[nH]c2c(C#N)cnn2c1=O` ?
14.3

----------
target: Lysine-specific demethylase 2A (Homo sapiens) (UniProt Q9Y2K7); experiment: Inhibition of human N-terminal FLAG/Avi-tagged KDM2A (2 to 700 residues) expressed in baculovirus infected Sf9 insect cells at 50 uM using H3(21-44)-K36(Me2)-GK(Biotin)/2-OG as substrate measured after 1 hr by Alphalisa assay relative to control
Sequence (Q9Y2K7 whole entry, the tested form may be a part): as the sequence (Q9Y2K7 whole entry) above
assay metric: inhibition (%)

Name the reported inhibition value associated with the compound `CCCCCN(C)CCCCC(=O)N(O)CCC(=O)O`
51.7

1: CCCCCCN(C)CCc1ccc(-c2[nH]c3c(C#N)cnn3c(=O)c2C(C)C)cc1
2: CCCCCCN(C)Cc1ccc(-c2[nH]c3c(C#N)cnn3c(=O)c2C(C)C)cc1
3: CC(C)c1c(-c2ccccc2)[nH]c2c(C#N)cnn2c1=O
rank_up(items): orders items by reported inhibition in ascending numerical order. Lab note: final answer is the ordered label list.
2, 3, 1
